Parameter: log10(IC50). Scope: all listed entries.
# target under test: wild-type HIV-1 protease (Human immunodeficiency virus type 1 group M subtype B, UniProt P04585)
// units: nM (pre-log); metric: IC50; scale: log10

Look over these answered cases.
- compound: "N=C1NC(c2ccccc2)(c2ccccc2)C(=O)N1Cc1cc(C(=O)N2Cc3cncnc3C2)cs1"
  recorded number: 1.91
- compound: "N=C1N[C@](C[C@@H]2CCOC2)(c2ccccc2)C(=O)N1Cc1ccc(C(F)(F)F)c(C(=O)N2Cc3nccnc3C2)c1 [Compound 70]"
  recorded number: 0.95
- compound: "CC(C)CCC1(c2ccc(F)cc2)NC(=N)N(Cc2ccc(C(F)(F)F)c(C(=O)N3Cc4cncnc4C3)c2)C1=O (centres unmarked) [Compound 167]"
  recorded number: 1.57
- compound: "N=C1NC(c2ccccc2)(c2ccccc2)C(=O)N1Cc1ccc(C(F)(F)F)c(C(=O)N2CCNC(=O)C2)c1"
  recorded number: 1.31
- compound: "CC(C)CC1(c2ccccc2)NC(=N)N(Cc2cccc(C(=O)N3Cc4cncnc4C3)c2)C1=O (centres unmarked)"
  recorded number: 1.30

Would you mind telling me what log10(IC50) value was observed for "N=C1NC(c2ccccc2)(c2ccccc2)C(=O)N1Cc1cccc(C(=O)N2CCc3ccccc32)c1" ?
1.72

Next record, please: CC(C)CC(c1ccc(C(F)(F)F)c(C(=O)N2CCn3c(nnc3C(F)(F)F)C2)c1)N1C(=N)N[C@](C[C@@H]2CCOC2)(c2ccc(F)cc2)C1=O (some centres unmarked) [Compound 42]
0.63

Next record, please: CC1CN(C(=O)c2cccc(CN3C(=N)NC(c4ccccc4)(c4ccccc4)C3=O)c2)Cc2nnc(C(F)(F)F)n21 (centres unmarked)
1.50

Next record, please: CC(C)CC(c1ccc(C(F)(F)F)c(C(=O)N2Cc3nccnc3C2)c1)N1C(=N)N[C@](CC2CCOCC2)(c2ccc(F)cc2)C1=O (some centres unmarked)
0.25

Next record, please: "N=C1NC(c2ccc(F)cc2)(c2ccc(F)cc2)C(=O)N1Cc1cncc(C(=O)N2CCN(C(=O)OCc3ccccc3)CC2)c1"
1.99

----------
# target under test: wild-type HIV-1 protease (Human immunodeficiency virus type 1 group M subtype B)
Sorting guide: entries reporting IC50 beneath 10 nM go in the MET pile, the rest go in the NOT MET pile.

- compound: "CC(C)CC1(c2ccccc2)NC(=N)N(Cc2cccc(C(=O)N3Cc4cnc(C#N)nc4C3)c2)C1=O (stereo not shown)"
  target under test: "wild-type HIV-1 protease (Human immunodeficiency virus type 1 group M subtype B)"
  qualitative label: "NOT MET"

Lab note: confirm whether the reported IC50 for this compound is below 10 nM, equality not counting. compound: "Cc1nocc1-c1ncc2c(n1)CN(C(=O)c1cc(CN3C(=N)N[C@](CCCC(F)(F)F)(c4ccc(F)cc4)C3=O)ccc1C(F)(F)F)C2"
MET

Next record, please: "C[C@H](c1cccc(C(=O)N2Cc3cncnc3C2)c1)N1C(=N)NC(c2ccccc2)(c2ccccc2)C1=O"
NOT MET

Next record, please: "N=C1NC(c2ccccc2)(c2ccccc2)C(=O)N1Cc1cccc(C(=O)N2Cc3cncnc3C2)c1"
NOT MET

Next record, please: "N=C1N[C@](CCCC(F)(F)F)(c2ccc(F)cc2)C(=O)N1Cc1ccc(C(F)(F)F)c(C(=O)N2CCN(c3ccccc3)CC2)c1"
NOT MET

Next record, please: CC(C)CCC1(c2ccccc2)NC(=N)N(Cc2cccc(C(=O)N3Cc4cnc(C#N)nc4C3)c2)C1=O (stereo not shown)
MET

Next record, please: "N=C1NC(c2ccc(F)cc2)(c2ccc(F)cc2)C(=O)N1Cc1cccc(C(=O)N2Cc3cnc(C(F)(F)F)nc3C2)c1"
NOT MET

Next record, please: "Cc1nonc1N1CCN(C(=O)c2cc(CN3C(=N)N[C@](CCCC(F)(F)F)(c4ccc(F)cc4)C3=O)ccc2C(F)(F)F)CC1"
NOT MET

Next record, please: "CC(C)C[C@]1(c2ccccc2)NC(=N)N([C@H](C)c2cccc(C(=O)N3Cc4nccnc4C3)c2)C1=O"
NOT MET

Next record, please: N=C1NC(C[C@@H]2CCOC2)(c2ccccc2)C(=O)N1Cc1ccc(C(F)(F)F)c(C(=O)N2CCn3c(nnc3C(F)(F)F)C2)c1 (stereo partly shown)
NOT MET

Next record, please: CC(C)CCC1(c2ccc(F)cc2)NC(=N)N(Cc2ccc(C(F)(F)F)c(C(=O)N3Cc4nc(-c5ccccc5)oc4C3)c2)C1=O (stereo not shown)
NOT MET

Next record, please: "N=C1NC(c2ccccc2)(c2ccccc2)C(=O)N1Cc1cc(F)cc(C(=O)N2CCn3c(nnc3C(F)(F)F)C2)c1"
NOT MET

Next record, please: "CC1(C)CN(C(=O)c2cccc(CN3C(=N)NC(c4ccccc4)(c4ccccc4)C3=O)c2)Cc2nnc(C(F)(F)F)n21"
NOT MET
